The origin of these recorded values is PubChem BioAssay AID1918949.

# System: K24384-001-R-PDC complex spheroid viability
# Protocol Summary: Anticancer human tumor K24384-001-R-PDC patient-derived pancreatic adenocarcinoma cell line growth inhibition
# Test Parameters: second compound 10 µM; first compound 0.000316 µM; hits give low values
Attribute: viability, T/C
Give the value in % but do not write % after it.

Below, 7 compounds whose answers are already recorded.
// viability, T/C lookup, key: CC(C)CC(NC(=O)C(Cc1ccccc1)NC(=O)c1cnccn1)B(O)O (stereo not drawn) + NC1CC1c1ccc(-c2cccc(O)c2)cc1
59.5

// viability, T/C lookup, key: CC[C@@]1(O)C(=O)OCc2c1cc1n(c2=O)Cc2cc3c(CN(C)C)c(O)ccc3nc2-1 + NC1CC1c1ccc(-c2cccc(O)c2)cc1
79

// viability, T/C lookup, key: CC(C)CC(NC(=O)CNC(=O)c1cc(Cl)ccc1Cl)B1OC(=O)CC(CC(=O)O)(C(=O)O)O1 (stereo not drawn) + NC1CC1c1ccc(-c2cccc(O)c2)cc1
111

// viability, T/C lookup, key: CC[C@@]1(O)C(=O)OCc2c1cc1n(c2=O)Cc2cc3c(CN(C)C)c(O)ccc3nc2-1 + NC1CCC(NC2CC2c2ccccc2)CC1
101

// viability, T/C lookup, key: Cn1ncnc1C1c2n[nH]c(=O)c3cc(F)cc(c23)NC1c1ccc(F)cc1 (stereo not drawn) + NC1CCC(NC2CC2c2ccccc2)CC1
85.6

// viability, T/C lookup, key: Cn1ncnc1C1c2n[nH]c(=O)c3cc(F)cc(c23)NC1c1ccc(F)cc1 (stereo not drawn) + NC1CC1c1ccc(-c2cccc(O)c2)cc1
108

// viability, T/C lookup, key: CC(C)CC(NC(=O)C(Cc1ccccc1)NC(=O)c1cnccn1)B(O)O (stereo not drawn) + NC1CCC(NC2CC2c2ccccc2)CC1
64.1

# input for lookup
// viability, T/C lookup, key: CC(C)CC(NC(=O)CNC(=O)c1cc(Cl)ccc1Cl)B1OC(=O)CC(CC(=O)O)(C(=O)O)O1 (stereo not drawn) + NC1CCC(NC2CC2c2ccccc2)CC1
92.9

###

# Test system: K24384-001-R-PDC complex spheroid viability
# Protocol Summary: Anticancer human tumor K24384-001-R-PDC cell line growth inhibition
# Test Parameters: second compound 10 µM; first compound 0.01 µM; hits give low values
# note: exactly 70% is not below, so it is no; use yes for viability, T/C strictly under it

Determine if Cn1ncnc1C1c2n[nH]c(=O)c3cc(F)cc(c23)NC1c1ccc(F)cc1 (configuration not stated) + NC1CC1c1ccc(-c2cccc(O)c2)cc1 shows viability, T/C strictly lower than 70%.
no

Determine if CC[C@@]1(O)C(=O)OCc2c1cc1n(c2=O)Cc2cc3c(CN(C)C)c(O)ccc3nc2-1 + NC1CCC(NC2CC2c2ccccc2)CC1 shows viability, T/C strictly lower than 70%.
yes

Determine if Cn1ncnc1C1c2n[nH]c(=O)c3cc(F)cc(c23)NC1c1ccc(F)cc1 (configuration not stated) + NC1CCC(NC2CC2c2ccccc2)CC1 shows viability, T/C strictly lower than 70%.
no

Determine if Nc1ncn(C2CC(O)C(CO)O2)c(=O)n1 (configuration not stated) + NC1CCC(NC2CC2c2ccccc2)CC1 shows viability, T/C strictly lower than 70%.
no

Determine if CC[C@@]1(O)C(=O)OCc2c1cc1n(c2=O)Cc2cc3c(CN(C)C)c(O)ccc3nc2-1 + NC1CC1c1ccc(-c2cccc(O)c2)cc1 shows viability, T/C strictly lower than 70%.
yes

Now for another entry.
Determine if Nc1ncn(C2CC(O)C(CO)O2)c(=O)n1 (configuration not stated) + NC1CC1c1ccc(-c2cccc(O)c2)cc1 shows viability, T/C strictly lower than 70%.
no

###

# Test system: K24384-001-R-PDC complex spheroid viability
# Protocol Summary: Anticancer human tumor K24384-001-R-PDC cell line growth inhibition;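 also: spheroids exposed to agents for seven days before luminescence viability reading; 100% = DMSO vehicle control viability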
# Test Parameters: second compound 3.16 µM; first compound 0.3 µM; hits give low values
Test Readout: viability, T/C (%)
Give the value in % but do not write % after it.

Below, 3 compounds whose answers are already recorded.
Requested read-out viability, T/C, target or system K24384-001-R-PDC complex spheroid viability, entry NS(=O)(=O)OCC1CC(n2ccc3c(NC4CCc5ccccc54)ncnc32)CC1O (centres undefined) + NC1CCC(NC2CC2c2ccccc2)CC1
59.7

Requested read-out viability, T/C, target or system K24384-001-R-PDC complex spheroid viability, entry Nc1ncn(C2CC(O)C(CO)S2)c(=O)n1 (centres undefined) + NC1CC1c1ccc(-c2cccc(O)c2)cc1
56.2

Requested read-out viability, T/C, target or system K24384-001-R-PDC complex spheroid viability, entry Nc1ccn(C2OC(CO)C(O)C2(F)F)c(=O)n1 (centres undefined) + NC1CCC(NC2CC2c2ccccc2)CC1
41.3

# input for lookup
Requested read-out viability, T/C, target or system K24384-001-R-PDC complex spheroid viability, entry CCN(c1cc(-c2ccc(CN3CCOCC3)cc2)cc(C(=O)NCc2c(C)cc(C)[nH]c2=O)c1C)C1CCOCC1 + NC1CCC(NC2CC2c2ccccc2)CC1
79.1

###

# Tested on: K24384-001-R-PDC complex spheroid viability
# Protocol Summary: Anticancer human tumor K24384-001-R-PDC cell line growth inhibition;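 also: spheroids exposed to agents for seven days before luminescence viability reading; 100% = DMSO vehicle control viability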
# Test Parameters: second compound 3.16 µM; first compound 1 µM; hits give low values
Test Readout: viability, T/C (%)
Give the value in % but do not write % after it.

Requested read-out viability, T/C, target or system K24384-001-R-PDC complex spheroid viability, entry O=C(C=Cn1cnc(-c2cc(C(F)(F)F)cc(C(F)(F)F)c2)n1)NNc1cnccn1 + NC1CCC(NC2CC2c2ccccc2)CC1
20.5

Requested read-out viability, T/C, target or system K24384-001-R-PDC complex spheroid viability, entry CC1(C)CCC(CN2CCN(c3ccc(C(=O)NS(=O)(=O)c4ccc(NCC5CCOCC5)c([N+](=O)[O-])c4)c(Oc4cnc5[nH]ccc5c4)c3)CC2)=C(c2ccc(Cl)cc2)C1 + NC1CCC(NC2CC2c2ccccc2)CC1
92.2

Requested read-out viability, T/C, target or system K24384-001-R-PDC complex spheroid viability, entry COc1cc(Nc2ncc3c(n2)-c2ccc(Cl)cc2C(c2c(F)cccc2OC)=NC3)ccc1C(=O)O + NC1CCC(NC2CC2c2ccccc2)CC1
60.6

###

Attribute: viability, T/C
# Test system: K24384-001-R-PDC complex spheroid viability
# Protocol Summary: Anticancer human tumor K24384-001-R-PDC cell line growth inhibition;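 also: spheroids exposed to agents for seven days before luminescence viability reading; 100% = DMSO vehicle control viability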
# Test Parameters: second compound 0.1 µM; first compound 1 µM; hits give low values
# Excerpt: Multicellular complex tumor spheroid response to LSD1 Inhibitor Iadademstat in combination with a variety of drugs and investigational agents in selected tumor cell lines The current study was undertaken to assess response to LSD1 inhibitors in combination with standard-of-care drugs and investigational agents in solid tumor complex spheroid models as well as in the K-562 leukemia. […] Compounds. […] If the clinical Cmax for an agent had not been determined, the highest concentration tested was 10 microM. […]
Give the value in % but do not write % after it.

Below, 3 compounds whose answers are already recorded.
// viability, T/C lookup, key: COc1cc(Nc2ncc3c(n2)-c2ccc(Cl)cc2C(c2c(F)cccc2OC)=NC3)ccc1C(=O)O + NC1CCC(NC2CC2c2ccccc2)CC1
84.1

// viability, T/C lookup, key: COc1cc(Nc2ncc3c(n2)-c2ccc(Cl)cc2C(c2c(F)cccc2OC)=NC3)ccc1C(=O)O + NC1CC1c1ccc(-c2cccc(O)c2)cc1
60.3

// viability, T/C lookup, key: CC1(C)CCC(CN2CCN(c3ccc(C(=O)NS(=O)(=O)c4ccc(NCC5CCOCC5)c([N+](=O)[O-])c4)c(Oc4cnc5[nH]ccc5c4)c3)CC2)=C(c2ccc(Cl)cc2)C1 + NC1CC1c1ccc(-c2cccc(O)c2)cc1
87.6

# input for lookup
// viability, T/C lookup, key: CC1COCCN1c1cc(-c2ccnn2C)c2ccnc(-c3ccn[nH]3)c2n1 (centres undefined) + NC1CCC(NC2CC2c2ccccc2)CC1
42.4

###

# Tested on: K24384-001-R-PDC complex spheroid viability
# Protocol Summary: Anticancer human tumor K24384-001-R-PDC cell line growth inhibition;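 also: spheroids exposed to agents for seven days before luminescence viability reading; 100% = DMSO vehicle control viability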
# Test Parameters: second compound 3.16 µM; first compound 0.1 µM; hits give low values
Attribute: viability, T/C
Give the value in % but do not write % after it.

Requested read-out viability, T/C, target or system K24384-001-R-PDC complex spheroid viability, entry CC(C)c1c(-c2ccccc2)nc2c(C#N)c[nH]n2c1=O + NC1CC1c1ccc(-c2cccc(O)c2)cc1
79

Requested read-out viability, T/C, target or system K24384-001-R-PDC complex spheroid viability, entry O=C(c1cc(Cc2n[nH]c(=O)c3ccccc23)ccc1F)N1CCN(C(=O)C2CC2)CC1 + NC1CC1c1ccc(-c2cccc(O)c2)cc1
77.3

Requested read-out viability, T/C, target or system K24384-001-R-PDC complex spheroid viability, entry COc1ccc([C@@H](O)c2cc(-c3ncnc4cc(N5CCOCC5)ccc34)c(F)cc2Cl)nn1 + NC1CC1c1ccc(-c2cccc(O)c2)cc1
105

# input for lookup
Requested read-out viability, T/C, target or system K24384-001-R-PDC complex spheroid viability, entry Nc1ncn(C2CC(O)C(CO)O2)c(=O)n1 (centres undefined) + NC1CCC(NC2CC2c2ccccc2)CC1
76.6
